target: Rho-associated protein kinase 1 (Homo sapiens); conditions: at 0.1 µM;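 also: values are mean percent inhibition of ROCK1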
property: inhibition (%)

INSERT INTO assay_data (smilesrepresentation, studysystem, property, measurementunit, valueobserved) VALUES
  ('CN(c1ccc(NC(=O)NCCN2CCOCC2)cc1)c1ccnc(Nc2ccc(CS(C)(=O)=O)cc2)n1', 'Rho-associated protein kinase 1 (Homo sapiens)', 'inhibition', '%', 1.51),
  ('CCS(=O)(=O)c1ccc(OC)c(Nc2ncc(-c3cccc(F)c3)o2)c1', 'Rho-associated protein kinase 1 (Homo sapiens)', 'inhibition', '%', 2.49),
  ('COc1cccc(-n2ncc3c(N/N=C/c4ccc(C(=O)NCCN(C)C)cc4)ncnc32)c1', 'Rho-associated protein kinase 1 (Homo sapiens)', 'inhibition', '%', 3.7),
  ('COC(=O)Nc1nc2ccc(Oc3ccc(NC(=O)Nc4cc(C(F)(F)F)ccc4F)cc3)cc2s1', 'Rho-associated protein kinase 1 (Homo sapiens)', 'inhibition', '%', 0.74),
  ('c1ccc(-c2n[nH]cc2-c2ccnc(-c3ccc(OCCn4ccnc4)cc3)c2)nc1', 'Rho-associated protein kinase 1 (Homo sapiens)', 'inhibition', '%', 4.13),
  ('Fc1cccc(COc2ccc(Nc3ncncc3C#Cc3ccccc3)cc2Cl)c1', 'Rho-associated protein kinase 1 (Homo sapiens)', 'inhibition', '%', 1.15);

All figures here come from ChEMBL document CHEMBL1961873.
